Measured values drawn from the supplement of paper PMC11579375 for this set.

Tested on: 3E (embryonal-type hepatoblastoma organoid)
Experiment Summary: area under the viability dose-response curve (AUC) (AUC (arbitrary units, max 500 = no viability loss)); higher = less sensitive (higher viability)
Reported Conditions: exposure time: 120 h; concentration range: 0.1 nM - 10 µM, 6 doses
Please use Satisfied for area under the viability dose-response curve under 400 and Not satisfied for everything else, ties included.

1. CS(=O)(=O)N1CCN(Cc2cc3nc(-c4cccc5[nH]ncc45)nc(N4CCOCC4)c3s2)CC1 ... Satisfied
2. Cc1sc2c(c1C)C(c1ccc(Cl)cc1)=N[C@@H](CC(=O)Nc1ccc(O)cc1)c1nnc(C)n1-2 ... Satisfied
3. O=C(O)C(=O)O.[NH-][C@@H]1CCCC[C@H]1[NH-].[Pt+2] ... Not satisfied
4. COc1cc2c(cc1O)CCN[C@]21CS[C@@H]2c3c(OC(C)=O)c(C)c4c(c3[C@H](COC1=O)N1[C@@H]2[C@H]2c3c(cc(C)c(OC)c3O)C[C@@H]([C@@H]1O)N2C)OCO4 ... Satisfied
5. CCN(c1cc(-c2ccc(CN3CCOCC3)cc2)cc(C(=O)NCc2c(C)cc(C)[nH]c2=O)c1C)C1CCOCC1 ... Not satisfied
6. NC1(c2ccc(-c3nc4ccn5c(=O)[nH]nc5c4cc3-c3ccccc3)cc2)CCC1 ... Satisfied
7. Cn1cc(-c2cc3c(N4CCN(c5ncc([C@@](C)(N)c6ccc(F)cc6)cn5)CC4)ncnn3c2)cn1 ... Not satisfied
8. CC(C)c1cc(-c2n[nH]c(=O)n2-c2ccc3c(ccn3C)c2)c(O)cc1O ... Satisfied
9. CC1(C)CCC(CN2CCN(c3ccc(C(=O)NS(=O)(=O)c4ccc(NCC5CCOCC5)c([N+](=O)[O-])c4)c(Oc4cnc5[nH]ccc5c4)c3)CC2)=C(c2ccc(Cl)cc2)C1 ... Not satisfied
10. CN1CCN(CCOc2cc(OC3CCOCC3)c3c(Nc4c(Cl)ccc5c4OCO5)ncnc3c2)CC1 ... Not satisfied
11. CC[C@@H]1C(=O)N(C)c2cnc(Nc3ccc(C(=O)N[C@H]4CC[C@H](N5CCN(CC6CC6)CC5)CC4)cc3OC)nc2N1C(C)C ... Satisfied
12. CS(=O)(=O)c1ccc(C(=O)Nc2ccc(Cl)c(-c3ccccn3)c2)c(Cl)c1 ... Not satisfied
13. Oc1nc(-c2ccc(C(F)(F)F)cc2)nc2c1CSCC2 ... Not satisfied
14. COc1cccc(OCCCN)c1-c1cc(Nc2cnc(C#N)cn2)n[nH]1 ... Satisfied
15. CCNC(=O)C[C@@H]1N=C(c2ccc(Cl)cc2)c2cc(OC)ccc2-n2c(C)nnc21 ... Satisfied
16. C=CCNC1=C2C[C@@H](C)C[C@H](OC)[C@H](O)[C@@H](C)/C=C(\C)[C@H](OC(N)=O)[C@@H](OC)/C=C\C=C(/C)C(=O)NC(=CC1=O)C2=O ... Satisfied
17. c1cn2cc(-c3ccc4cn[nH]c4c3)nc(Nc3ccc(N4CCOCC4)cc3)c2n1 ... Not satisfied
18. C[C@]12C=CC(=O)C=C1CC[C@@H]1[C@@H]2[C@@H](O)C[C@@]2(C)[C@H]1CC[C@]2(O)C(=O)CO ... Not satisfied
19. C[C@@H](Oc1cc(-c2cnn(C3CCNCC3)c2)cnc1N)c1c(Cl)ccc(F)c1Cl ... Satisfied
20. C[C@]1(O)C[C@@H](c2nc(-c3ccc4ccc(-c5ccccc5)nc4c3)c3c(N)nccn32)C1 ... Satisfied
21. O=C1NC(=O)[C@@H](c2cn3c4c(cccc24)CCC3)[C@@H]1c1c[nH]c2ccccc12 [Tivantinib] ... Satisfied
22. C[C@@H]1COCCN1c1cc(=O)n2c(n1)N(Cc1cncc(Cl)c1)[C@H](C(F)(F)F)CC2 ... Not satisfied
23. N#CCNC(=O)c1ccc(-c2ccnc(Nc3ccc(N4CCOCC4)cc3)n2)cc1 ... Not satisfied
24. Cn1cnc2c(F)c(Nc3ccc(Br)cc3Cl)c(C(=O)NOCCO)cc21 ... Not satisfied
25. O=C(NOC[C@H](O)CO)c1ccc(F)c(F)c1Nc1ccc(I)cc1F ... Not satisfied
26. COc1ccc(-c2ccc3c(N4CCOC[C@@H]4C)nc(N4CCOC[C@@H]4C)nc3n2)cc1CO ... Satisfied
27. CC(=O)O[C@@]12CO[C@@H]1C[C@H](O)[C@@]1(C)C(=O)[C@H](O)C3=C(C)[C@@H](OC(=O)[C@H](O)[C@@H](NC(=O)OC(C)(C)C)c4ccccc4)C[C@@](O)([C@@H](OC(=O)c4ccccc4)[C@H]21)C3(C)C ... Satisfied
28. Nc1ncccc1-c1nc2ccc(-c3ccccc3)nc2n1-c1ccc(C2(N)CCC2)cc1 ... Satisfied

###

System: 17F1 (fetal-I hepatoblastoma organoid with intermediate liver markers)
Experiment Summary: area under the viability dose-response curve (AUC) (AUC (arbitrary units, max 500 = no viability loss)); higher = less sensitive (higher viability)
Reported Conditions: exposure time: 120 h; concentration range: 0.1 nM - 10 µM, 6 doses
Entries and their measured area under the viability dose-response curve follow.
Recorded Metric: area under the viability dose-response curve

1) COCC[n+]1c2c(n(Cc3cnccn3)c1C)C(=O)c1ccccc1C2=O [Sepantronium bromide] ... 312
2) COc1cccc(OCCCN)c1-c1cc(Nc2cnc(C#N)cn2)n[nH]1 ... 371
3) CC[C@]1(O)C[C@@H]2CN(CCc3c([nH]c4ccccc34)[C@@](C(=O)OC)(c3cc4c(cc3OC)N(C)[C@H]3[C@@](O)(C(=O)OC)[C@H](OC(C)=O)[C@]5(CC)C=CCN6CC[C@]43[C@@H]65)C2)C1 ... 208

###

Test system: 135F2 (fetal-II hepatoblastoma organoid with high liver markers)
Experiment Summary: area under the viability dose-response curve (AUC) (AUC (arbitrary units, max 500 = no viability loss)); higher = less sensitive (higher viability)
Reported Conditions: exposure time: 120 h; concentration range: 0.1 nM - 10 µM, 6 doses
Item-by-item account of area under the viability dose-response curve
Recorded Metric: area under the viability dose-response curve

1. COc1cc(N2CCC(N3CCN(C)CC3)CC2)ccc1Nc1ncc(Cl)c(Nc2ccccc2P(C)(C)=O)n1 [Brigatinib] ... 392
2. CC(=O)O[C@@]12CO[C@@H]1C[C@H](O)[C@@]1(C)C(=O)[C@H](O)C3=C(C)[C@@H](OC(=O)[C@H](O)[C@@H](NC(=O)OC(C)(C)C)c4ccccc4)C[C@@](O)([C@@H](OC(=O)c4ccccc4)[C@H]21)C3(C)C [Docetaxel] ... 195
3. C[C@@H]1C[C@H]2[C@@H]3CCC4=CC(=O)C=C[C@]4(C)[C@@]3(F)[C@@H](O)C[C@]2(C)[C@@]1(O)C(=O)CO [Dexamethasone] ... 472
4. N[C@@H]1CCCN(c2c(/C=C3\SC(=O)NC3=O)cccc2-c2ccccc2)C1 [AZD1208] ... 487
5. O=C(/C=C/c1cccc(S(=O)(=O)Nc2ccccc2)c1)NO [Belinostat] ... 386
6. COc1cc2nccc(Oc3ccc(NC(=O)NC4CC4)c(Cl)c3)c2cc1C(N)=O [Lenvatinib] ... 469
7. Cc1cn(-c2cc(NC(=O)c3ccc(C)c(Nc4nccc(-c5cccnc5)n4)c3)cc(C(F)(F)F)c2)cn1 [Nilotinib] ... 476
8. CO[C@H]1C[C@@H]2CC[C@@H](C)[C@@](O)(O2)C(=O)C(=O)N2CCCC[C@H]2C(=O)O[C@H]([C@H](C)C[C@@H]2CC[C@@H](OCCO)[C@H](OC)C2)CC(=O)[C@H](C)/C=C(\C)[C@@H](O)[C@@H](OC)C(=O)[C@H](C)C[C@H](C)/C=C/C=C/C=C/1C [Everolimus] ... 453
9. COc1cccc2c1C(=O)c1c(O)c3c(c(O)c1C2=O)C[C@@](O)(C(=O)CO)C[C@@H]3O[C@H]1C[C@H](N)[C@H](O)[C@H](C)O1 [Doxorubicin] ... 308
10. O=C(c1ccc(F)c(F)c1Nc1ccc(I)cc1F)N1CC(O)([C@@H]2CCCCN2)C1 [Cobimetinib] ... 300
11. CC[C@]1(O)C[C@@H]2CN(CCc3c([nH]c4ccccc34)[C@@](C(=O)OC)(c3cc4c(cc3OC)N(C)[C@H]3[C@@](O)(C(N)=O)[C@H](O)[C@]5(CC)C=CCN6CC[C@]43[C@@H]65)C2)C1 [Vindesine] ... 202
12. N[C@@H](Cc1ccc(N(CCCl)CCCl)cc1)C(=O)O [Melphalan] ... 469
13. Cc1nc(Nc2ncc(C(=O)Nc3c(C)cccc3Cl)s2)cc(N2CCN(CCO)CC2)n1 [Dasatinib] ... 458

###

Tested on: 17F1
Experiment Summary: area under the viability dose-response curve (AUC) (AUC (arbitrary units, max 500 = no viability loss)); higher = less sensitive (higher viability)
Reported Conditions: exposure time: 120 h; concentration range: 0.1 nM - 10 µM, 6 doses
Recorded Metric: area under the viability dose-response curve

1. Cc1cn(-c2cc(NC(=O)c3ccc(C)c(Nc4nccc(-c5cccnc5)n4)c3)cc(C(F)(F)F)c2)cn1 ... 496
2. C[C@@H](Oc1cc(-n2cnc3ccc(CN4CCN(C)CC4)cc32)sc1C(N)=O)c1ccccc1C(F)(F)F ... 276
3. CCN(c1cc(-c2ccc(CN3CCOCC3)cc2)cc(C(=O)NCc2c(C)cc(C)[nH]c2=O)c1C)C1CCOCC1 ... 482
4. COc1cccc2c1C(=O)c1c(O)c3c(c(O)c1C2=O)C[C@@](O)(C(C)=O)C[C@@H]3O[C@H]1C[C@H](N)[C@H](O)[C@H](C)O1 ... 301
5. CO[C@H]1/C=C/C[C@H](C)[C@@H](C)S(=O)(=O)NC(=O)c2ccc3c(c2)N(C[C@@H]2CC[C@H]21)C[C@@]1(CCCc2cc(Cl)ccc21)CO3 ... 481
6. O=C1c2c(O)ccc(O)c2C(=O)c2c(NCCNCCO)ccc(NCCNCCO)c21 ... 319
7. C[C@@H]1COC(Nc2ccc3ncnc(Nc4ccc(OCc5nccs5)c(Cl)c4)c3c2)=N1 ... 447
8. c1cn2cc(-c3ccc4cn[nH]c4c3)nc(Nc3ccc(N4CCOCC4)cc3)c2n1 ... 480
9. CN1CCN(c2ccc3nc(-c4c(N)c5c(F)cccc5[nH]c4=O)[nH]c3c2)CC1 ... 468
10. COc1cc([C@@H]2c3cc4c(cc3[C@@H](O[C@@H]3O[C@@H]5CO[C@@H](C)O[C@H]5[C@H](O)[C@H]3O)[C@H]3COC(=O)[C@H]23)OCO4)cc(OC)c1O [Etoposide] ... 438
11. CN(C)C/C=C/C(=O)Nc1ccc(C(=O)Nc2cccc(Nc3ncc(Cl)c(-c4c[nH]c5ccccc45)n3)c2)cc1 ... 371
12. Cc1nc(Nc2ncc(C(=O)Nc3c(C)cccc3Cl)s2)cc(N2CCN(CCO)CC2)n1 ... 488
13. C[C@H](NC(=O)Cc1cc(F)cc(F)c1)C(=O)N[C@@H]1C(=O)N(C)c2ccccc2-c2ccccc21 ... 478
14. CN1CCN(c2ccc(C(=O)Nc3n[nH]c4ccc(Cc5cc(F)cc(F)c5)cc34)c(NC3CCOCC3)c2)CC1 ... 448
15. O=C(NOC[C@H](O)CO)c1ccc(F)c(F)c1Nc1ccc(I)cc1F ... 480
16. CC1=C(/C=C/C(C)=C/C=C/C(C)=C/C(=O)Nc2ccc(O)cc2)C(C)(C)CCC1 [Fenretinide] ... 443
17. O=C(/C=C/c1cccc(S(=O)(=O)Nc2ccccc2)c1)NO ... 437
18. S=P(N1CC1)(N1CC1)N1CC1 ... 488
19. CC(C)C[C@H](NC(=O)CNC(=O)c1cc(Cl)ccc1Cl)B(O)O ... 278
20. NC1(c2ccc(-c3nc4ccn5c(=O)[nH]nc5c4cc3-c3ccccc3)cc2)CCC1 ... 473
21. CN(C)/N=N/c1[nH]cnc1C(N)=O ... 486
22. COc1cc(C(=O)O)ccc1NC(=O)[C@@H]1N[C@@H](CC(C)(C)C)[C@](C#N)(c2ccc(Cl)cc2F)[C@H]1c1cccc(Cl)c1F ... 457
23. Cn1cnc2c(F)c(Nc3ccc(Br)cc3F)c(C(=O)NOCCO)cc21 ... 458
24. CS(=O)(=O)N1CCN(Cc2cc3nc(-c4cccc5[nH]ncc45)nc(N4CCOCC4)c3s2)CC1 ... 493
25. O=C(CCCCCCC(=O)Nc1ccccc1)NO ... 437
